FYI, the data here is from ChEMBL document CHEMBL5241054.

Below are pIC50 values recorded for Aromatase (Homo sapiens, UniProt P11511).
Would you please state pIC50, meaning minus log10 of the concentration in mol/L, as a bare number?

Examples with their reported pIC50 follow.
COMPOUND: CO[C@H]1C[C@@H]2[C@H](CC[C@]3(C)[C@@H](O)CC[C@@H]23)c2ccc(O)cc21
RECORDED_RESULT: 4.00
--
COMPOUND: C[C@H]1C[C@@H]2[C@H](CC[C@]3(C)C(O)CC[C@@H]23)[C@@]2(C)CCCC=C12 (stereo not given in full)
RECORDED_RESULT: 6.58

# C[C@H]1C[C@@H]2[C@H](CC[C@]3(C)C(=O)CC[C@@H]23)[C@@]2(C)CCC(=O)C=C12 with Aromatase (Homo sapiens, UniProt P11511): pIC50 is 6.46

# C[C@]12CC[C@@H]3c4ccc(O)cc4[C@H](CCCc4ccccc4)C[C@H]3[C@@H]1CC[C@@H]2O with Aromatase (Homo sapiens, UniProt P11511): pIC50 is 4.55

# C[C@]12CC[C@@H]3c4cc(F)c(O)cc4CC[C@H]3[C@@H]1CC[C@@H]2O with Aromatase (Homo sapiens, UniProt P11511): pIC50 is 4.11

# C[C@]12CC[C@H]3[C@@H](CCC4=CC(=O)CC[C@@]43CBr)[C@@H]1CCC2=O with Aromatase (Homo sapiens, UniProt P11511): pIC50 is 5.85

# C[C@]12CCC(=O)C=C1[C@@H](CCCCc1ccccc1)C[C@@H]1[C@@H]2CC[C@]2(C)C(=O)CC[C@@H]12 with Aromatase (Homo sapiens, UniProt P11511): pIC50 is 3.47
